# method_description: UV/VIS-near-IR absorption of the dyes
# Type: physicochemical
# cond: molar extinction coefficient in CH2Cl2
recorded_metric: ε (CH2Cl2) (M⁻¹ cm⁻¹)
Form entry: value (M⁻¹ cm⁻¹) — number only.

Look up ε (CH2Cl2) for this compound: C(=Cc1cc(-c2ccccc2)[se+]c(-c2ccccc2)c1)C=C1C=C(c2cccs2)SC(c2cccs2)=C1.F[P-](F)(F)(F)(F)F
250000

Reported ε (CH2Cl2), compound ClC1=C(/C=C/c2cc(-c3ccccc3)[s+]c(-c3ccccc3)c2)CCC/C1=C\C=C1C=C(c2ccccc2)SC(c2ccccc2)=C1 : ____
100000

Could you share which ε (CH2Cl2) value was measured for C(=C1C=C(c2ccccc2)[Se]C(c2ccccc2)=C1)c1cc(-c2cccs2)[s+]c(-c2cccs2)c1.F[P-](F)(F)(F)(F)F ?
130000

Would you kindly share the measured ε (CH2Cl2) for C(=C1C=C(c2cccs2)[Se]C(c2cccs2)=C1)c1cc(-c2cccs2)[se+]c(-c2cccs2)c1.F[P-](F)(F)(F)(F)F ?
130000

Consider the compound C1=C(c2cccs2)[Se]c2ccccc2/C1=C/C1=CC(c2cccs2)=[SeH]c2ccccc21 and give its measured ε (CH2Cl2).
78000

// query ε (CH2Cl2) value for entry C(=Cc1cc(-c2ccccc2)[se+]c(-c2ccccc2)c1)C=C1C=C(c2ccccc2)SC(c2ccccc2)=C1.F[P-](F)(F)(F)(F)F
200000

Sample C(=C1C=C(c2ccccc2)[Se]C(c2ccccc2)=C1)c1cc(-c2cccs2)[se+]c(-c2cccs2)c1.F[P-](F)(F)(F)(F)F — what was its ε (CH2Cl2)?
150000
